target_desc: DNA gyrase (Escherichia coli) (UniProt P0AES6+P0AES4)
assay_method_text: Maximum non-effective concentration against in vitro Escherichia coli DNA gyrase supercoiling activity was determined by coupled spectrophotometric ATPase assay
Assay type: protein-complex assay
measured_endpoint: MNEC (µg/mL)

CCc1nn(-c2cc(Cl)cc(Cl)c2)c2nc(Oc3ccc4c(N(C)C)cc(=O)oc4c3)nc(N)c12; 125

[I] CCOC(=O)c1cccc(Oc2nc(N)c3c(C)nn(-c4cc(Cl)cc(Cl)c4)c3n2)c1
[II] CCOC(=O)c1cccc(Oc2nc(N)c3c(CC)nn(-c4cc(Cl)cc(Cl)c4)c3n2)c1
# input Sorting by MNEC in descending order, would I or II appear first? Kindly state the label of the option you pick.
# output II

###

target_desc: DNA gyrase (Escherichia coli) (UniProt P0AES6+P0AES4)
assay_method_text: Maximum non-effective concentration against in vitro Escherichia coli DNA gyrase supercoiling activity was determined by coupled spectrophotometric ATPase assay
Assay type: protein-complex assay
measured_endpoint: MNEC (µg/mL)

Cc1ccc(Oc2nc(N)c3c(C)nn(-c4cc(Cl)cc(Cl)c4)c3n2)cn1; 125
CCOC(=O)c1cccc(Oc2nc(N)c3cnn(-c4cc(Cl)cc(Cl)c4)c3n2)c1; 125

###

target_desc: DNA gyrase (Escherichia coli) (UniProt P0AES6+P0AES4)
measured_endpoint: MNEC (µg/mL)

Example entries and their recorded answers appear below.
Nc1nc(Sc2cccc(C(=O)O)c2)nc2c(-c3ccc(Cl)c(Cl)c3)cnn12; 1
Nc1nc(Sc2cccc(C(=O)O)c2)nc2c1cnn2-c1cc(Cl)cc(Cl)c1; 1

[P] Cc1nn(-c2cc(Cl)cc(Cl)c2)c2nc(Sc3cccc(C(=O)O)c3)nc(N)c12
[Q] CCOC(=O)c1c(O)oc2cc(Oc3nc(N)c4c(CC)nn(-c5cc(Cl)cc(Cl)c5)c4n3)ccc2c1=O
# input Between the entries labeled P and Q , whose measured MNEC is lower? Kindly state the label of the option you pick.
# output P
(P: 1 µg/mL, Q: 2 µg/mL)

###

Test system: Staphylococcus aureus
assay_method_text: Compound was tested in vitro for antibacterial activity against Staphylococcus aureus Coum-R
Assay type: functional
measured_endpoint: MIC (µg/mL)

Example entries and their recorded answers appear below.
CO[C@@H]1[C@@H](OC(N)=O)[C@@H](O)[C@H](Oc2ccc3c(O)c(NC(=O)c4ccc(O)c(CC=C(C)C)c4)c(=O)oc3c2C)OC1(C)C [NOVOBIOCIN]; 16
CCCCNC(=O)Nc1c(O)oc2cc(Oc3nc(N)c4c(CC)nn(-c5cc(Cl)cc(Cl)c5)c4n3)ccc2c1=O; 8

[1] CCc1nn(-c2cc(Cl)cc(Cl)c2)c2nc(Oc3ccc4c(O)c(NC(C)=O)c(=O)oc4c3)nc(N)c12
[2] CCc1nn(-c2cc(Cl)cc(Cl)c2)c2nc(Sc3cccc(C(=O)O)c3)nc(N)c12
# input Sorting by MIC in descending order, would 1 or 2 appear first? Kindly state the label of the option you pick.
# output 2

###

Tested on: Enterococcus faecium
assay_method_text: Compound was tested in vitro for antibacterial activity against Enterococcus faecium vanA E23-8
Assay type: functional
measured_endpoint: MIC (µg/mL)

CO[C@@H]1[C@@H](OC(N)=O)[C@@H](O)[C@H](Oc2ccc3c(O)c(NC(=O)c4ccc(O)c(CC=C(C)C)c4)c(=O)oc3c2C)OC1(C)C; 8

[1] Nc1nc(Sc2cccc(C(=O)O)c2)nc2c(-c3ccc(Cl)c(Cl)c3)cnn12
[2] CCCCNC(=O)Nc1c(O)oc2cc(Oc3nc(N)c4c(CC)nn(-c5cc(Cl)cc(Cl)c5)c4n3)ccc2c1=O
# input Sorting by MIC in descending order, would 1 or 2 appear first? Kindly state the label of the option you pick.
# output 1
